Please mark TRUE if the recorded logP is equal to or greater than 0.4, and FALSE if it falls below.

Please check the record NCCCc1cccnc1 and state if its logP is at or above 0.4.
TRUE

State whether the measured logP reaches 0.4, counting equality as reaching it, for NCCCCCc1cccnc1
TRUE

Is it the case that NCCCc1ccccc1 has logP reaching or exceeding 0.4?
TRUE

In plain terms: is recorded logP at least 0.4 for OCCCCc1ccncc1 ?
TRUE

Given the entry OCCCCCc1ccncc1 , answer whether its logP meets or surpasses 0.4.
TRUE

Exam item: decide whether the reported logP for NC(=O)CCc1ccncc1 is at least 0.4.
FALSE

Textbook exercise: given the entry NCCCCc1cccnc1 , state whether its logP is greater than or equal to 0.4.
TRUE

Please tell me: is the compound OCCCc1ccccn1 at or over 0.4 in terms of logP?
TRUE

Determine whether this compound has logP no lower than 0.4: OCCCCc1cccnc1
TRUE

Is logP at least 0.4? Consider NCc1ccccn1
FALSE

Hi, just wondering whether NCCc1ccncc1 shows logP of 0.4 or higher.
FALSE

Reported logP reaches at least 0.4 for OCCCCc1ccccn1 ?
TRUE

Can NC(=O)CCc1cccnc1 be said to have logP at or above 0.4?
FALSE

Quick check: does NCCCCCc1ccccn1 have logP greater than or equal to 0.4?
TRUE

Given NCCc1cccnc1 , state whether its logP is at least 0.4.
FALSE

Threshold query (logP >= 0.4) on NC(=O)CCCCc1ccncc1
TRUE

Decide: logP of NCCCCc1ccccn1 >= 0.4?
TRUE

Tell me whether logP is at least 0.4 here: OCCCc1ccncc1
TRUE

Could you verify whether the entry NCCCc1ccccn1 shows logP of no less than 0.4?
TRUE

Could you please find out whether OCCc1ccncc1 has logP that meets 0.4 or exceeds it?
FALSE

I'd appreciate it if you could say whether OCCCCCc1cccnc1 has logP at least equal to 0.4.
TRUE

----------
# assayOverview: method code SF-AS, from Mayer, M.; Testa, B.; Van, H.; Bornand-Crausaz, A. (1982). Non-additivity amd intramolecular effects in the partition coefficient of omega-functionalized alkylpyridines. Eur J Med Chem, 17(5)453-459.
Items are presented alongside their recorded logP.
Respond with the number and no other words.

Look over these answered cases.
| givenSmiles | logP |
| --- | --- |
| NCCCc1ccncc1 | 0.4 |
| OCCc1ccccn1 | 0.12 |
| NCCc1ccccn1 | 0.08 |
| NCCCCc1ccncc1 | 0.86 |
| NCc1ccncc1 | -0.38 |

# logP lookup, item NC(=O)CCc1ccccn1
-0.27

Give the measured logP of OCCCCCc1ccccn1 .
1.28

----------
# assayOverview: method code SF-AS, from Mayer, M.; Testa, B.; Van, H.; Bornand-Crausaz, A. (1982). Non-additivity amd intramolecular effects in the partition coefficient of omega-functionalized alkylpyridines. Eur J Med Chem, 17(5)453-459.
logP listing for selected molecules.
Please respond with just the number, no unit label.

| givenSmiles | observable | valueObserved |
| --- | --- | --- |
| OCc1cccnc1 | logP | -0.02 |
| OCc1ccccn1 | logP | 0.06 |
| OCCc1cccnc1 | logP | 0.12 |

For the molecule shown here, OCCCc1cccnc1 , give the reported logP.
0.6

State the recorded logP for this entry: NC(=O)CCCCc1cccnc1
0.4

Form field: reported logP of NCCCCCc1ccncc1
1.4
